Test system: MS2 coat protein
Method summary: apparent KD of MS2 coat protein; higher = weaker reporter binding
Condition description: Eterna round: R107; input ligand: arginine 13.2 mM
# cutoff 0.03 µM applies to apparent KD of MS2 coat protein; >= gives yes (1), < gives no (0)

Please review the following examples before continuing.
>  <Primary sequence>
UUACAUGAGGAUCACCCAUGUCAUACAGAAGGAGCGUCACAUAAGACAGGUAGGUCGCUGUUAUUUUUUACUAUUAUAUCCUCUA [JR_Nu_ExcArginiA_Sub030]

>  <Answer label>
no (0)

$$$$
>  <Primary sequence>
CGGCUCAUAAUGGAUACCAGUCCAGCAUAGAAACCUUGACACAUGAGGAUCACCCAUGUUGACCCUUGGCAGCCAUUGAUCAUAC [theeternabot_exclusion_MS2_Theo_B_28]

>  <Answer label>
no (0)

$$$$
>  <Primary sequence>
UUCAGCUAGUCGGCCGCCACUACACGAGGAUCACCCGUGUUCCUAAAACACUGCUUCGGCAGUGGUAGGACCGGGACUAGCUGAG

>  <Answer label>
no (0)

$$$$
>  <Primary sequence>
CCAUGCAGGUCGGCCGCCACUACACACAUGAGGAUCACCCAUGUAGUUACUGGGUGAAGUGGCAGUAGGACCGGGACCUGCACAU [Brourdmod19]

>  <Answer label>
yes (1)

$$$$
>  <Primary sequence>
AUAUAUACAUGAGGAUCACCCAUGUUAUUUCGAGGACCGGUACGGCCGCCACUCGAUAGAGUAGAAGUAACAUUUGUUAGAUGUA [JR_SSTryptoA_Sub011]

>  <Answer label>
no (0)

$$$$
>  <Primary sequence>
UCCUCCUCCGCAAGGAGGAGGAGUUGCGAUACCAGCACGGCAACGUGCCCUUGGCAGCGCACAUGAGGAUCACCCAUGUCAUGUU [#1 Exclusion - Theophylline A Attempt #10 (HarryS)]

>  <Answer label>
no (0)

$$$$
>  <Primary sequence>
UGACAUUGCUCAGAUACCAGACAUGAGCAUCAGCCAUGUGCCAACAAGUACAUAAUAAAUGUCCCUUGGCAGCUGAGCAAUGUCU [TheoBX 16 #MS2Left #Theo2 #AlternativeMS2]

>  <Answer label>
no (0)

$$$$
>  <Primary sequence>
UGUAUGUGAUUUGAUACCAGACCAGCUGGUGGUCCAUGAGGAACACCCAUGGAGGUUUGGGUCCCUUGGCAGCAAAUCGCAUACU [SS Theo B #24 Ms20]

>  <Answer label>
yes (1)

$$$$

Item AUAAAUAAGGCGGCCGCCACUAAUAUAUUAAUAUUUUAUAUCCGACAUGAGGAUCACCCAUGUGGUAGGACCGGGCCAAUAAUUA [Same State - Tryptophan B] with apparent KD of MS2 coat protein of 0.03 µM or above?
no (0)

# bool: apparent KD of MS2 coat protein of ACUUCAUGAGGUGAUACCAGCCAAUGACAUGAGGACAUGAGGAUCACCCAUGUUUAUGUAGGCCCUUGGCAGCAUUGUAACAUGA [Same State Theophylline B 4] >= 0.03 µM
yes (1)

* * *

Test system: MS2 coat protein
Method summary: apparent KD of MS2 coat protein; higher = weaker reporter binding
Condition description: Eterna round: R107; input ligand: arginine 13.2 mM
Property label: apparent KD of MS2 coat protein (µM)
Field format: number, assumed µM, no unit text.

What value of apparent KD of MS2 coat protein has been recorded for this entry: AACAUGAGGAUCACCCAUGUAUUGGGUGAUACCAGCCUGAAUAAUGGCCCUUGGCAGCACCACGCUAACUUUAUGUCUGCGAACC [Maus]
0.0393
